Measured values drawn from ChEMBL document CHEMBL5375996 for this set.

Test Method Notes: physchem
Condition Summary: octanol/water
Readout Kind: logD

# annotated cases, reported logD shown
>>> experimental_result("C#C[C@H](CC(N)=O)NC(=O)[C@@H]1C[C@@H](C)CN1C(=O)C1(c2ccc(OC(F)(F)F)cc2)CC1")
2.2
>>> experimental_result("C#C[C@H](CC(N)=O)NC(=O)[C@@H]1CCCN1C(=O)[C@]1(c2ccc(OC(F)(F)F)cc2)C[C@H](F)C1")
1.7
>>> experimental_result("NC(=O)CN(NC(=O)[C@@H]1CCCN1C(=O)C1(c2ccc(OC(F)(F)F)cc2)CC1)C(=O)CCl")
1.9
>>> experimental_result("C#C[C@H](CC(N)=O)NC(=O)[C@@H]1C[C@H](C)CN1C(=O)C1(c2ccc(OC(F)(F)F)cc2)CC1")
2.3

A. C#C[C@H](CC(N)=O)NC(=O)[C@@H]1CCCN1C(=O)[C@]1(c2ccc(OC(F)(F)F)cc2)C[C@@H](F)C1
B. N#C[C@H](CC(N)=O)NC(=O)[C@@H]1CCCN1C(=O)C1(c2ccc(F)cc2)CC1
**Query** Problem: Given the entries A and B , determine which has the lower reported logD. Record your answer as the label of the chosen record.
**Result** B
(B: 0.5, A: 2.1)
